Cited source: PubChem BioAssay

assay: RAM pathway blockade in budding yeast – dse1pr::URA3 reporter, 5-FOA selection, pilot screen (AID 869);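 also: 0% = DMSO wells with no growth and 100% = 10 µM 1-NA-PP1 with full growth; RAM network block rescues cells from 5-FOA so hits raise OD615 growth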; details: S. cerevisiae dse1pr::URA3 5-FOA growth, OD615, 2 d; at 10 µM; active compounds read high; strain carries analog-sensitive mutant Cbk1 kinase
QUANTITY: inhibition (%)
Report the value in % with no unit label.

// worked examples, inhibition included
Cc1cc(N2CCOCC2)nc2ccc(NC(=O)C3CCC(C)CC3)cc12 (stereo unspecified) = 1.95
Cc1ccc(OCC(=O)NCc2ccccn2)c(Br)c1 = 0.22
CCOc1ccc(C2CC(c3ccc(OC)cc3)n3ncnc3N2)cc1 (stereo unspecified) = -0.22
CCOCCCNC(=O)Cn1cc2c(n1)CCCCC2 = 2.07
CC(=O)NCCc1ccc(S(=O)(=O)N2CCCC2)cc1 = 3.39
O=C(NC(C(=O)c1ccccc1)N1CCOCC1)c1ccccc1 (stereo unspecified) = 1.61
COCCNC(=O)C(C)N(c1ccc(Oc2ccccc2)cc1)S(C)(=O)=O (stereo unspecified) = -0.1
O=c1c(-c2ccccc2)coc2c(CN3CCOCC3)c(O)ccc12 = 0.58

Q) Please supply the value of reported inhibition for the item COc1ccc(NC(=O)CN(c2cc(C)cc(C)c2)S(=O)(=O)c2c(C)noc2C)cc1OC
A) 3.25

Q) Indicate the recorded inhibition value for this compound: CCOC(=O)Cn1c(=O)oc2cc(S(=O)(=O)Nc3ccc(N(CC)CC)cc3C)ccc21
A) 1.81
